# Test system: SR
# method_notes: NCI tumour cell line growth inhibition, 48 h
Calls of active or inactive are those of the source. Rule as the data show it: active = GI50 up to about 1.1 µM and inactive = higher.
Classes used: active, inactive

compound: O=c1c2ccccc2[nH]c2c(Cl)cc(Cl)c(NC3CCCCC3)c12
cat: inactive

compound: O=c1oc2ccc([N+](=O)[O-])cc2c(Nc2ccc3c(c2)S(=O)(=O)c2ccccc2O3)c1[N+](=O)[O-]
cat: inactive

compound: CCCOP(=S)(N1CC1)N1CC1
cat: inactive

compound: O=S(=O)(O)CCS [MESNA]
cat: inactive

compound: CCCCCCCc1cscc1-c1cscc1Br
cat: inactive

compound: O=C1C(CN2CCCCC2)CCCC1CN1CCCCC1 (stereo unspecified)
cat: inactive

compound: N=C1NC(=O)N2CC12 (stereo unspecified) [IMEXON]
cat: inactive

compound: COc1cc(C=O)c(-c2cc3c(cc2C=O)OCO3)c(OC)c1OC
cat: inactive

compound: O=C1/C(=C/c2ccccc2[N+](=O)[O-])N=C(c2ccccc2)N1C1Nc2cc3c(cc2S1)NC(N1C(=O)/C(=C/c2ccccc2[N+](=O)[O-])N=C1c1ccccc1)S3 (stereo unspecified)
cat: inactive

compound: C=CC(=O)N1C/C(=C\c2ccc(OC)cc2)C(=O)/C(=C/c2ccc(OC)cc2)C1
cat: active

compound: CCc1c(C)c(C#N)c(=S)n(C2OC(COC(C)=O)C(OC(C)=O)C(OC(C)=O)C2OC(C)=O)c1C (stereo unspecified)
cat: inactive
